These entries and their values trace back to ChEMBL document CHEMBL3774372.

- Experimental Protocol: MRT in CD1 mouse plasma at 12.92 mg/kg, ip measured up to 240 mins by LC/ESI-MS/MS analysis
- Assay type: ADME, organism-based
Recorded Metric: MRT (h)
A number alone suffices; assume h.

# MRT of `Cc1cccc(C)c1OCCOCCN[C@H](C)CO.Cl` = 1.42

----------
- Experimental Protocol: in vitro
- Measurement Context: mouse, liver microsomes
Recorded Metric: microsomal CLint at 20 µM (µL/min/mg)
Express it in µL/min/mg; write the number only.

Cc1cccc(C)c1OCCOCCN[C@@H](C)CO
47
Cc1cccc(C)c1OCCOCCN[C@H](C)CO.Cl
47

# context switch: different compound, same microsomal CLint at 20 µM
Short answer for Cc1cc(C)c(OCCOCCNC(C)CO)c(C)c1 (stereo not drawn) : microsomal CLint at 20 µM was 13

----------
- Test system: Mus musculus
- Experimental Protocol: Neurotoxicity in mouse at 30 mg/kg, ip after 4 hrs by rotarod test
- Type: toxicity, organism-based
- Measurement Context: in vivo
Recorded Metric: Activity

Cc1cc(C)c(OCCOCCNC(C)CO)c(C)c1 (centres undefined)
Non-toxic
Cc1cccc(C)c1OCCOCCN[C@@H](C)CO
Non-toxic
Cc1cccc(OCCOCCNC(C)CO)c1C (centres undefined)
Non-toxic
Cc1cccc(OCCNCC(O)c2ccccc2)c1C (centres undefined)
Non-toxic

The measured Activity that CCC(CO)NCCCOc1cccc(C)c1C (centres undefined) showed for Mus musculus is Non-toxic

Item Cc1cccc(C)c1OCCOCCN[C@@H]1CCCC[C@H]1O (racemic) ; assay system Mus musculus; Activity reported as Non-toxic

Record for Cc1cc(C)c(OCCNC(C)CO)c(C)c1 (centres undefined) under target or system Mus musculus: Activity reported as Non-toxic

Case CCC(CO)NCCOCCOc1c(C)cccc1C (centres undefined) , Mus musculus, Activity recorded as Non-toxic

Case Cc1cccc(OCCCNC(C)CO)c1C (centres undefined) , Mus musculus, Activity recorded as Non-toxic

Tested on Mus musculus, the item `CC[C@H](CO)NCCOCCOc1c(C)cccc1C` showed Activity equal to Non-toxic

Reported Mus musculus Activity for item CCC(CO)NCCOc1cccc(C)c1C (centres undefined) was Non-toxic

// assay Mus musculus, entry `Cc1cccc(C)c1OCCOCCN1CCC(O)CC1` , Activity value = Non-toxic

Considering Cc1cc(C)c(OCCN[C@@H]2CCCC[C@H]2O)c(C)c1 (racemic) , its Activity with Mus musculus was recorded as Non-toxic

Value (Activity, Mus musculus) for record Cc1cccc(C)c1OCCOCCNC(C)CO (centres undefined) = Non-toxic

----------
- Experimental Protocol: Absolute bioavailability in CD1 mouse plasma at 12.92 mg/kg, ip measured up to 240 mins by LC/ESI-MS/MS analysis
- Assay type: ADME, organism-based
Recorded Metric: bioavailability (%)
Form entry: value (%) — number only.

bioavailability reported for this compound `Cc1cccc(C)c1OCCOCCN[C@H](C)CO.Cl` : 6.78

----------
- Experimental Protocol: MRT in CD1 mouse brain at 12.92 mg/kg, ig measured up to 240 mins by LC/ESI-MS/MS analysis
- Assay type: ADME, organism-based
- Measurement Context: po
Recorded Metric: MRT (h)
All answers are understood in h, so give the number only.

Recorded MRT (compound `Cc1cccc(C)c1OCCOCCN[C@H](C)CO.Cl` ): 1.23

----------
- Experimental Protocol: MRT in CD1 mouse brain at 1 mg/kg, iv measured up to 240 mins by LC/ESI-MS/MS analysis
- Assay type: ADME, organism-based
Recorded Metric: MRT (min)
Unit min implied. Number only.

Memo: `Cc1cccc(C)c1OCCOCCN[C@H](C)CO.Cl` , reported MRT: 50.1

----------
- Experimental Protocol: Ratio of drug level in brain to plasma in CD1 mouse at 12.92 mg/kg, ip administered as single dose measured after 120 mins by LC/ESI-MS/MS analysis
- Format: ADME, organism-based
- Measurement Context: brain and plasma, read-out: BPR
Recorded Metric: Kp at 2 h

Entry `Cc1cccc(C)c1OCCOCCN[C@H](C)CO.Cl` , Kp at 2 h reported as 2.86

----------
- Target Or Test System: 5-hydroxytryptamine receptor 2B (Homo sapiens, UniProt P41595)
- Sequence (P41595 whole entry): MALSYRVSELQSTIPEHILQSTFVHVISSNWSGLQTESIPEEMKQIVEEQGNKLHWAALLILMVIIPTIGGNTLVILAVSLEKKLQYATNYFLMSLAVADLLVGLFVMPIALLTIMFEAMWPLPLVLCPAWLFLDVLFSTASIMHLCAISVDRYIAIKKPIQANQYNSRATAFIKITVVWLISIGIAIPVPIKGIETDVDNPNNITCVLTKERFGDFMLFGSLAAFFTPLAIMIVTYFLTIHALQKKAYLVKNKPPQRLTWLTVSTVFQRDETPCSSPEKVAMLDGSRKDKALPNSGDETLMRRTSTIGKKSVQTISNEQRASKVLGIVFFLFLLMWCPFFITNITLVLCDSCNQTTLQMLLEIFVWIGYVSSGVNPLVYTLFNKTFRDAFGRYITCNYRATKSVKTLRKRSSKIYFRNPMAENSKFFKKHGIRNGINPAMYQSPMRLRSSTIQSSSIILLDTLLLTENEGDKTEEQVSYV
- Experimental Protocol: Displacement of [125I](+/-)DOI from human recombinant 5-HT2B receptor expressed in CHO cells
Recorded Metric: IC50 (nM)
Numbers only; they are read as nM.

For COc1cc(CC(C)N)c(OC)cc1I (racemic) the compound record lists IC50 as 2.5

----------
- Tested on: Mus musculus
- Experimental Protocol: Neurotoxicity in mouse at 300 mg/kg, ip after 4 hrs by rotarod test
- Type: toxicity, organism-based
- Measurement Context: in vivo
Recorded Metric: Activity

Answered cases to consult:
Cc1cccc(OCCOCCNC(C)CO)c1C (stereo not given)
Non-toxic
Cc1cccc(OCCNCC(O)c2ccccc2)c1C (stereo not given)
Non-toxic
Cc1cc(C)c(OCCNCC(O)c2ccccc2)c(C)c1 (stereo not given)
Non-toxic
Cc1cccc(OCCCNCC(O)c2ccccc2)c1C (stereo not given)
Toxic

Just so you know, measured Activity for Cc1cccc(C)c1OCCOCCNC(C)CO (stereo not given) came out at Non-toxic

----------
- Experimental Protocol: Ratio of drug level in brain to plasma in CD1 mouse at 12.92 mg/kg, ip administered as single dose measured after 5 mins by LC/ESI-MS/MS analysis
- Assay type: ADME, organism-based
- Measurement Context: brain and plasma, read-out: BPR
Recorded Metric: Kp at 5 min

The reported Kp at 5 min of the molecule `Cc1cccc(C)c1OCCOCCN[C@H](C)CO.Cl` was 1.13

----------
- Experimental Protocol: Ratio of drug level in brain to plasma in CD1 mouse at 1 mg/kg, iv administered as single dose measured after 15 mins by LC/ESI-MS/MS analysis
- Assay type: ADME, organism-based
- Measurement Context: brain and plasma, read-out: BPR
Recorded Metric: Kp at […]
Number, no unit, nothing else.

Briefly, Kp at […] measured for `Cc1cccc(C)c1OCCOCCN[C@H](C)CO.Cl` : 5.36

----------
- Test system: Mus musculus
- Experimental Protocol: AUMC (0 to infinity) in CD1 mouse plasma at 1 mg/kg, iv measured up to 240 mins by LC/ESI-MS/MS analysis
- Type: ADME, organism-based
- Measurement Context: in vivo, 4 h
Recorded Metric: AUMC (ng·h²/mL)
Quick reminder: number only, in ng·h²/mL, skip the unit.

// field: AUMC; key: `Cc1cccc(C)c1OCCOCCN[C@H](C)CO.Cl` ; value = 956

----------
- Experimental Protocol: Neurotoxicity in ip dosed mouse after […] by rotarod test
- Format: toxicity, organism-based
- Measurement Context: in vivo
The molecules listed here are annotated with their TD50 at […].
Don't forget the unit after the value.

These recorded examples may help you get a feel for the data.
Cc1cccc(C)c1OCCOCCN[C@@H](C)CO
39.2 mg/kg
Cc1cccc(C)c1OCCN[C@H](C)CO
29.5 mg/kg

Recorded TD50 at […] (molecule `Cc1cccc(C)c1OCCOCCN[C@H](C)CO.Cl` ): 33.3 mg/kg

----------
- Experimental Protocol: Cmax in CD1 mouse brain at 12.92 mg/kg, ip measured up to 240 mins by LC/ESI-MS/MS analysis
- Type: ADME, organism-based
- Parameters: dose 12.92 mg/kg, route intraperitoneal
Recorded Metric: Cmax (ng/mL)
Write the answer as a number in ng/mL, unit excluded.

Cmax for `Cc1cccc(C)c1OCCOCCN[C@H](C)CO.Cl` is 2360

----------
- Tested on: Vibrio harveyi
- Experimental Protocol: Mutagenicity in Vibrio harveyi BB7XM assessed as number of colonies after 48 hrs (reference value: 14 no_unit)
- Format: ADME, organism-based
- Measurement Context: in vivo
Recorded Metric: Activity
Answer field: number only, no words.

Consider the reported Activity for these compounds:
Cc1cc(C)c(OCCOCCNC(C)CO)c(C)c1 (stereo not given)
24
Cc1cccc(C)c1OCCOCCN[C@@H]1CCCC[C@H]1O (racemic)
22
Cc1cccc(C)c1OCCOCCN[C@@H](C)CO
18
Cc1cccc(C)c1OCCOCCN[C@H](C)CO.Cl
18

From here, focus on the item given below.
Value of measured Activity for the entry `CC[C@@H](CO)NCCOCCOc1c(C)cccc1C` : 22

----------
- Experimental Protocol: Ratio of drug level in brain to plasma in CD1 mouse at 12.92 mg/kg, ig administered as single dose measured after 30 mins by LC/ESI-MS/MS analysis
- Assay type: ADME, organism-based
- Measurement Context: brain and plasma, po, read-out: BPR
Recorded Metric: Kp at 0.5 h
Just the number, please.

# Kp at 0.5 h of `Cc1cccc(C)c1OCCOCCN[C@H](C)CO.Cl` = 2.12

----------
- Experimental Protocol: Ratio of drug level in brain to plasma in CD1 mouse at 12.92 mg/kg, ip administered as single dose measured after 15 mins by LC/ESI-MS/MS analysis
- Assay type: ADME, organism-based
- Measurement Context: brain and plasma, read-out: BPR
Recorded Metric: Kp at […]
Give a plain numeric answer without units written out.

Input `Cc1cccc(C)c1OCCOCCN[C@H](C)CO.Cl` . Output Kp at […]: 2.55
